- assayDetails: Oral bioavailability in rat
- Type: ADME, organism-based
- measurementSetup: in vivo
attributeMeasured: bioavailability (%)
Report the figure in % without appending any unit label.

Please give the measured bioavailability for this compound: CC(C)n1c(C(=O)N(C)C)c2c(c(O)c1=O)C(=O)N(Cc1ccc(F)c(Cl)c1)CC2 29

----------
- assayDetails: Oral bioavailability in beagle dog at 1 mg/kg by LC-MS/MS method
- Assay type: ADME, organism-based, Canis lupus familiaris
- measurementSetup: in vivo
attributeMeasured: bioavailability (%)
Report the figure in % without appending any unit label.

Please give the measured bioavailability for this compound: CN1C(=O)c2c3c(c(O)c(=O)n2[C@]12CC[C@@H]1C[C@@]12CO)C(=O)N(Cc1ccc(F)c(Cl)c1)CC3 26
